Provenance of the data: PubChem BioAssay AID2656

Test system: Human washed platelets, SFLLRN-induced 14C-serotonin release
Assay: blockers of platelet serotonin release via PAR1 – cell-based, 14C-serotonin release, radioactive, mechanism study for platelet granule secretion inhibitor project, late-stage follow-up (AID 2656)
Settings: at 10 µM
Activity calls are given as the source filed them.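 How the source made its calls: active means mean inhibition of serotonin release over both replicates above 50%; inactive means mean inhibition at or below 50%.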
One label from this list, please: active, inactive

Solved entries (count: 4):
1. CC(=O)Oc1ccc(-c2nc(-c3cccnc3)no2)cc1 inactive
2. COC(=O)c1nn(-c2ccc3c(c2)CCN3C(C)=O)cc1O inactive
3. O=C(Oc1ccc(Cl)cc1)c1ccc(COC(=O)c2cnccn2)cc1 inactive
4. COc1cc2c(cc1OC)-c1cc(Nc3ccccc3C)nc(=O)n1CC2 active

What call does the record list for `CCOc1ccc2nc(NCCO)[nH]c2c1` ? inactive

Ok, now `COC(=O)c1ccccc1NC(=O)Nc1ccc2c(c1)OCO2` inactive

Please do the same for `COc1ccc(C(=O)Nc2ccc(N3CCOCC3)cc2)cc1OC` as well. inactive
